From various publications: IC50 for Melatonin receptor type 1B (Homo sapiens).

Some entries whose results are on file:
[
  {
    "Molecule": "CCC(=O)NCC1CC1c1cccc2nc(C)nn12 (stereo not drawn)",
    "Assay Value": "≤ 100 nM"
  },
  {
    "Molecule": "CCNC(=O)NC[C@@H]1C[C@H]1c1cccn2nc(C)cc12 (relative stereo)",
    "Assay Value": "≤ 100 nM"
  },
  {
    "Molecule": "CCC(=O)NCCC1CCc2ccn3nc(C)cc3c21 (stereo not drawn)",
    "Assay Value": "≤ 100 nM"
  },
  {
    "Molecule": "CC(=O)NCC[C@@H]1CCc2ccn3nc(C)cc3c21",
    "Assay Value": "≤ 100 nM"
  }
]

Ask: Identify the measured IC50 of CCCCC(=O)N1CCC(C2CCc3ccc(OC)cc32)CC1 (single isomer, unassigned; (-)) for Melatonin receptor type 1B (Homo sapiens).
Result: < 10 nM

Ask: Identify the measured IC50 of COc1cc2c(cc1F)CCC2C1CCN(C(=O)C(C)C)CC1 (stereo not drawn) for Melatonin receptor type 1B (Homo sapiens).
Result: < 10 nM
